- target or test system: purified human platelet fibrinogen receptor (GPIIb/IIIa) (Homo sapiens, UniProt P05106+P08514)
- Construct: Glycoprotein IIb/IIIa is isolated from human platelet lysates
- Sequence (P08514 32-887 limits assumed): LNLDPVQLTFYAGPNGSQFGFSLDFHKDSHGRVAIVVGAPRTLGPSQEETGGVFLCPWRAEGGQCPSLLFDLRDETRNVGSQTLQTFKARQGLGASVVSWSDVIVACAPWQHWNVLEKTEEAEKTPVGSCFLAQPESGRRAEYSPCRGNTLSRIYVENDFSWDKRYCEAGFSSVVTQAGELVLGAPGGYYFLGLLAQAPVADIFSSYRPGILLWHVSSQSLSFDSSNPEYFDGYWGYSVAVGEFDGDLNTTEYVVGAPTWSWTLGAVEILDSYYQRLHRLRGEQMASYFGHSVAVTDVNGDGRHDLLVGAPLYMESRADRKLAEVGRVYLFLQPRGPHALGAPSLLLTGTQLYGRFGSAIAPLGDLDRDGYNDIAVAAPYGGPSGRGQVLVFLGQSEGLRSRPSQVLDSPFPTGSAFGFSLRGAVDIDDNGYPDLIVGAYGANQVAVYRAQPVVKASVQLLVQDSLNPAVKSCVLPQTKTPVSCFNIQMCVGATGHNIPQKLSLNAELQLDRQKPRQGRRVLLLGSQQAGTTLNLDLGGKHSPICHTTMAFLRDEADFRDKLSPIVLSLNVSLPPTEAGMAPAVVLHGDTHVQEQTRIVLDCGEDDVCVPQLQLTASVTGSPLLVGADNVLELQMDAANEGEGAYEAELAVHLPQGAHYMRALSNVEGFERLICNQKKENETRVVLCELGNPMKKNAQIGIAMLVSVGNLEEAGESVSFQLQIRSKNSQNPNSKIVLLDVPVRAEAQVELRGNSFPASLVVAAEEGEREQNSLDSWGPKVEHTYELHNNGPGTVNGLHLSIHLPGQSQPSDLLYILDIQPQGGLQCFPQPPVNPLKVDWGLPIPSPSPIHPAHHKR
- Sequence (P08514 891-1039 limits assumed): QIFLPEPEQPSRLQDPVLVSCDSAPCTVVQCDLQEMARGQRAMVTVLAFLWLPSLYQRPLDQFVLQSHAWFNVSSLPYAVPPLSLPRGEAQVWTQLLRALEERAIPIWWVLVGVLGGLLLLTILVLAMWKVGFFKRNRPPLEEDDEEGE
- Sequence (P05106 27-788): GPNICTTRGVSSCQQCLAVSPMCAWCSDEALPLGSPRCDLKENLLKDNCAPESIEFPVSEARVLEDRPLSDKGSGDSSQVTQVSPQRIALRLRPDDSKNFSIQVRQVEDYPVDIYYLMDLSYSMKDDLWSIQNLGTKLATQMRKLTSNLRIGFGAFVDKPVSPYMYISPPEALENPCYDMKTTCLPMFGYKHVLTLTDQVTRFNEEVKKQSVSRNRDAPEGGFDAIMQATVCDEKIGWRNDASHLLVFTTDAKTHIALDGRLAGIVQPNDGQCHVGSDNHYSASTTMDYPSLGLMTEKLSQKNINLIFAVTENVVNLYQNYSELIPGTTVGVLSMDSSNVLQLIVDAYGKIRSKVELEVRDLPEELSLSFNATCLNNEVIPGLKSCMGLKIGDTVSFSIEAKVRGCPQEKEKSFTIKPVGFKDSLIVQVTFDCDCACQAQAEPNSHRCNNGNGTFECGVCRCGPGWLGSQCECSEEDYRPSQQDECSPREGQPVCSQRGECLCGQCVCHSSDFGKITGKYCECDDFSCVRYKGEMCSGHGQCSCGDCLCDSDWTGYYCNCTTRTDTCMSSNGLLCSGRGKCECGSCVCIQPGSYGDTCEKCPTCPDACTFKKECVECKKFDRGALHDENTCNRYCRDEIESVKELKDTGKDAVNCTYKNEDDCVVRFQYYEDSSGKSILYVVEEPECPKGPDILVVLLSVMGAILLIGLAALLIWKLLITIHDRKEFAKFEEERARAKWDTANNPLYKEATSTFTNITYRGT
- test name: test (b): GPIIb/IIIa ELISA, inhibition of biotinylated fibrinogen binding
- study conditions: 50% inhibition of biotinylated fibrinogen binding to GPIIb/IIIa
Structures can show the parent of a compound that is named as a salt.
observable: IC50 (µM)

[P] COC(=O)COc1ccc(C(=O)NC(=O)Nc2ccc(C(=N)N)cc2)cc1 [Example 1, acetate salt]
[Q] N=C(N)c1ccc(NC(=O)NC(=O)c2ccc(OCC(=O)O)cc2)cc1
Field: lower IC50 | Options: P / Q Pick one and reply with its label. Q
